Test system: MDA-MB-231 breast
Assay: NCI tumour cell line growth inhibition, 48 h
METRIC_NAME: TGI

Would you please look over these solved cases?
>>> result("Cc1cc(Nc2ccc(C)c(Cl)c2)n2nc(C(F)(F)F)nc2n1")
"> 100 µM"
>>> result("CC(N)/C(N)=N/O (stereo not given)")
"> 100 µM"
>>> result("CC#Cc1ccc(-c2ccccc2)s1")
"> 100 µM"
>>> result("N#Cc1nc(-c2cnccn2)oc1N")
"> 100 µM"
>>> result("C[C@]12[C@@H]3CC[C@H]1[C@@H](O)C(=O)N2CC3")
"> 100 µM"

State the recorded TGI for every item in the following list.
1. COCCn1cc(-c2nc(-c3cc4cccnc4[nH]3)cs2)c2cc(OC)ccc21
2. O=c1[nH]c(=O)c2c3n(cc2[nH]1)CCCCC3
3. O=c1c(F)cn(Cc2c(Cl)cccc2Cl)c(=O)n1Cc1c(Cl)cccc1Cl
4. CC1(C)[C@@H](Cn2cc(I)c(=O)[nH]c2=O)CC[C@@]1(C)CO
5. Cc1cc2c(cc1C)[n+](=O)c(C(=O)c1ccccc1)c(C(F)F)n2[O-]

1. > 79.9 µM
2. > 100 µM
3. > 31.6 µM
4. > 100 µM
5. > 100 µM

====

Test system: 786-0 renal
Assay: NCI tumour cell line growth inhibition, 48 h
What TGI was measured for each of the following?

Example entries and their recorded answers appear below.
>>> result("COc1ccc(C(C)NNC(=O)c2ccncc2)cc1OC (stereo unspecified)")
"> 100 µM"
>>> result("c1ccc(Nc2ncc(-c3ccccc3)o2)cc1")
"> 25 µM"
>>> result("C[C@@H]1CC[C@H]2C(C)(C)[C@H]3C[C@@]12CC[C@@]3(C)O")
"> 100 µM"
>>> result("O=C1NC2(CCN(CCc3ccccc3)CC2)Oc2ccccc21")
"> 100 µM"
>>> result("CC(=O)[O-].CC(=O)[O-].O=C(N/N=C/c1cc(Cl)cc(Cl)c1O)c1ccncc1.[Cu+2]")
"> 100 µM"

Please state TGI for every molecule in the list that follows.
1. CC1=NN(c2nc(N)nc(COc3ccc(N)cc3)n2)C(C)(C)C1
2. COc1cc(-c2nn(-c3cccc(NC(=O)c4ccccc4)c3)cc2-c2ccncc2)ccc1Cl
3. C[C@]12[C@@H]3CC[C@H]1[C@@H](O)C(=O)N2CC3

> 100 µM
> 100 µM
> 100 µM

Go through the items and report each one's TGI.
1. CCOC(=O)/C(C#N)=C/c1coc2cc(C)cc(C)c2c1=O
2. CC(=O)Nc1cc2ccc(=O)oc2cc1Cl
3. O=C(/C=C/c1c(O)ccc2ccccc12)c1ccc([N+](=O)[O-])cc1

["> 100 µM", "> 100 µM", "> 55.6 µM"]

====

System: SNB-75 CNS
Experiment: NCI tumour cell line growth inhibition, 48 h
METRIC_NAME: TGI

Study these solved cases before continuing.
>>> result("O=C1C(Br)=C(Br)C(=O)c2ccc(=O)ccc21")
"> 100 µM"
>>> result("C[N+]12C=CC=C1C(N1CCCC1)c1scc(-c3ccc(Br)cc3)c12 (stereo not given)")
"> 22.3 µM"
>>> result("C[C@@H]1CC[C@H]2C(C)(C)[C@H]3C[C@@]12CC[C@@]3(C)O")
"> 100 µM"
>>> result("Cc1ccc(-c2nc(N3CCNCC3)c3oc(-c4ccc(C)cc4)nc3n2)cc1")
"> 32.1 µM"

Which TGI is listed for C[C@]12[C@@H]3CC[C@H]1[C@@H](O)C(=O)N2CC3 ? > 100 µM

====

Test system: A549 NSCLC
Assay: NCI tumour cell line growth inhibition, 48 h
Where a SMILES comes first, the peptide text is derived from it. The star is where a group is joined. OSu = O=C1CCC(=O)N1O*
METRIC_NAME: TGI

>>> result("COc1cc2c(cc1OC)C(Cl)C(c1ccc(F)cc1)=C2Cl (stereo unspecified)")
"32.8 µM"
>>> result("NCCCCC(NC(=O)C(N)Cc1ccc(O)cc1)C(=O)NC(CCCCN)C(=O)NC(CCCCN)C(=O)ON1C(=O)CCC1=O (stereo unspecified) (H-YKKK-OSu; configuration not given here)")
"> 100 µM"
>>> result("COc1c(CC(C)=O)ccc2c1C(=O)c1ccc(C=O)c(OC(C)=O)c1C2=O")
"> 100 µM"
>>> result("C[C@@]1(O)CC[C@]2(C)C3CCCC3[C@H]12 (stereo partly specified)")
"> 100 µM"
>>> result("COc1cc(C2C(Cl)C(=O)N2n2cnc3ccccc3c2=O)ccc1O (stereo unspecified)")
"> 100 µM"

Batch: TGI for all items listed.
1. CCOC(=O)n1cc(C2=C(c3ccc(OC)c(OC)c3)COC2=O)c2ccccc21
2. Nc1ncc2c(n1)-c1ccccc1OC2N1CCCCC1 (stereo unspecified)
3. CCCCCCc1cc2cc(-c3cn4ccsc4n3)c(=O)oc2cc1O
4. O=C1SC(SCc2ccccc2)=NC12CC2c1ccccc1 (stereo unspecified)
5. Cc1[nH]c(=O)nc2sc(=NC3CCCCC3)n(C3CCCCC3)c(=O)c12
6. CN(C)CC1CCCC/C1=N/O (stereo unspecified)

> 100 µM
> 100 µM
> 100 µM
81.8 µM
> 100 µM
> 100 µM

====

Test system: NCI-H23 lung
Experiment: NCI tumour cell line growth inhibition, 48 h
METRIC_NAME: GI50

Guide cases for GI50, answers given:
>>> result("[O-][Cl+3]([O-])([O-])[O-].[O]=[Ru]=[O].c1ccc(-c2ccccn2)nc1.c1ccc(-c2ccccn2)nc1")
"> 100 µM"
>>> result("C/C=C/[C@@H]1O[C@@H]2COC(=O)C2=C[C@@H]1O")
"14.1 µM"
>>> result("NC(=S)N/N=C1\\c2cc(Cl)ccc2-c2c1cc(Cl)cc2[N+](=O)[O-]")
"3.86 µM"
>>> result("NC(=S)N/N=C\\c1nccc2c(C(F)(F)F)cccc12")
"0.446 µM"

Consider the record given below.
Need GI50, item COc1ccc(C(c2cc(OC)c(OC)c(OC)c2)n2cncn2)cc1O (stereo not given) 0.977 µM

====

Kindly supply the reported TGI values for the records listed here.
Tested on: K-562 leukemia
Assay: NCI tumour cell line growth inhibition, 48 h

Before answering, review these 4 worked examples.
>>> result("CCOC(=O)C12OC(OCC)(CC1(OCC)OCC)C1(CC1)C2=O (stereo not given)")
"> 100 µM"
>>> result("O=c1cc(-c2ccc3c(c2)OCO3)[nH]c2cc3c(cc12)OCO3")
"> 100 µM"
>>> result("COc1ccc2ncnc(Nc3ccc(OCc4ccccc4)cc3)c2c1")
"> 25 µM"
>>> result("O=S1C(=c2ccc(=C3Sc4ccccc4S3)cc2)Sc2ccccc21 (stereo not given)")
"> 100 µM"

Tell me the measured TGI of CCOC(=O)CCCSCCCC(=O)CCCSCCCC(=O)OCC , please. > 100 µM

====

System: TK-10 renal
Assay: NCI tumour cell line growth inhibition, 48 h
METRIC_NAME: TGI

Some compounds with known TGI results, for comparison:
>>> result("O=S1C(=c2ccc(=C3Sc4ccccc4S3)cc2)Sc2ccccc21 (stereo unspecified)")
"> 100 µM"
>>> result("O=C(CC1Sc2ccccc2NC1=O)Nc1ccccc1[N+](=O)[O-] (stereo unspecified)")
"> 100 µM"
>>> result("COc1cc2c(cc1O)[C@H](C)C(c1ccc(OC)c(OC)c1)O2 (stereo partly specified)")
"30.1 µM"
>>> result("COc1ccc2ncnc(Nc3ccc(OCc4ccccc4)cc3)c2c1")
"18.4 µM"
>>> result("C[C@@H]1CC[C@H]2C(C)(C)[C@H]3C[C@@]12CC[C@@]3(C)O")
"> 100 µM"
>>> result("O=C1C(Br)=C(Br)C(=O)c2ccc(=O)ccc21")
"37.2 µM"
>>> result("CC(=C(c1ccc(OCCN2CCCCC2)cc1)c1ccc(OCCN2CCCCC2)cc1)c1ccc(Cl)cc1")
"0.755 µM"
>>> result("CCCCCCc1cc2cc(-c3cn4ccsc4n3)c(=O)oc2cc1O")
"> 100 µM"
>>> result("O=C1/C(=C\\c2ccc(Cl)cc2Cl)Sc2scc(-c3ccc(O)c(O)c3)[n+]21")
"38.8 µM"
>>> result("COc1cc2c(cc1OC)-c1cc(OC)c(OC)cc1C(CN(C)C)C2 (stereo unspecified)")
"> 10 µM"

Please supply TGI for each of the following items, keeping them in order.
1. O=C1OC(c2ccccc2)=N/C1=C\c1ccc([N+](=O)[O-])cc1
2. O=C(O)C(Cl)Cl
3. Cc1ccc(Nc2nc(NNC(=O)Cc3ccccc3)nc(NNC(=O)c3ccncc3)n2)cc1
4. C=C1C[C@H](O)[C@H](Br)C(C)(C)[C@@]12CCC(C)=C(Cl)C2

["> 100 µM", "> 10000 µM", "> 10 µM", "2.89 µM"]

# map each compound to its TGI
1. O=c1[nH]c(-c2ccccc2)nc2cc(Cl)ccc12
2. Cc1ccc(S[C@@H](C)[C@@](O)(CF)CN(Cc2ccccc2)C(=O)C(F)(F)F)cc1

["> 100 µM", "> 100 µM"]

All values here come from PubChem BioAssay (NCI).
